Species: Rattus norvegicus
Test: Open TG-GATES - Regimen: Daily Repeat
Type: toxicity, organism-based, Sprague-Dawley
Parameters: regimen Daily Repeat, gender Male, age 6 weeks
Details: in vivo, po, 100 mg/kg, […], tissue Plasma, route gavage, dose level Low, time 7 day
Observable: GLC

Solved entries (count: 3):
>>> value_measured("CC(C)(S)[C@@H](N)C(=O)O")
"184 mg/dL"
>>> value_measured("O=C(O)c1cccnc1")
"171.4 mg/dL"
>>> value_measured("CCN1CCCC1CNC(=O)c1cc(S(N)(=O)=O)ccc1OC (centres undefined) [SULPIRIDE]")
"175.2 mg/dL"

Item `O=C(N[C@H](CO)[C@H](O)c1ccc([N+](=O)[O-])cc1)C(Cl)Cl` : provide GLC 189.6 mg/dL

----------
Species on record: Rattus norvegicus
Experiment: Open TG-GATES - Regimen: Daily Repeat
Type: toxicity, organism-based, Sprague-Dawley
Design: regimen Daily Repeat, gender Male, age 6 weeks
Settings: in vivo, po, 100 mg/kg, […], tissue Plasma, route gavage, dose level Low, time 7 day
Ca: recorded values

// worked examples, Ca included
>>> value_measured("O=C(N[C@H](CO)[C@H](O)c1ccc([N+](=O)[O-])cc1)C(Cl)Cl")
"11.7 mg/dL"
>>> value_measured("CC(C)(S)[C@@H](N)C(=O)O")
"10.9 mg/dL"
>>> value_measured("O=C(O)c1cccnc1")
"10.7 mg/dL"

# next compound below
Identify measured Ca corresponding to CCN1CCCC1CNC(=O)c1cc(S(N)(=O)=O)ccc1OC (centres undefined) [SULPIRIDE] 10.7 mg/dL

----------
Organism: Rattus norvegicus
Assay: Open TG-GATES - Regimen: Single
Assay type: toxicity, organism-based, Sprague-Dawley
Set-up: regimen Single, gender Male, age 6 weeks
Settings: in vivo, po, 0 mg/kg, 24 h, tissue Plasma, route gavage, dose level Control
# key: entry, value: TC
Number plus unit, in that order.

>>> value_measured("CCc1oc2ccccc2c1C(=O)c1cc(I)c(O)c(I)c1 [BENZIODARONE]")
"76 mg/dL"

Given CC(C)(S)[C@@H](N)C(=O)O [PENICILLAMINE] , respond with its TC. 83 mg/dL

Tell me its TC given C[C@]12CCC(=O)C=C1CC[C@@H]1[C@@H]2CC[C@@]2(C)[C@H]1CC[C@]2(C)O [METHYLTESTOSTERONE] as the entry. 80.8 mg/dL

Look up and report measured TC for this entry: C[C@](N)(Cc1ccc(O)c(O)c1)C(=O)O [METHYLDOPA] 72.6 mg/dL

For the compound CC(C)C(=O)Nc1ccc([N+](=O)[O-])c(C(F)(F)F)c1 [FLUTAMIDE] , report TC. 77.4 mg/dL

Return reported TC. Input compound: CCSCC[C@H](N)C(=O)O [ETHIONINE] 81 mg/dL

----------
Recorded measurements of IP, one per entry
Species: Rattus norvegicus
Test: Open TG-GATES - Regimen: Daily Repeat
Type: toxicity, organism-based, Sprague-Dawley
Parameters: regimen Daily Repeat, gender Male, age 6 weeks
Details: in vivo, po, 0 mg/kg, […], tissue Plasma, route gavage, dose level Control, time 14 day
Supply the numeric figure in mg/dL, leaving out any unit text.

Please list IP recorded for the compound `O=C(O)c1cccnc1` 7.1

State, in one line, measured IP of `C[C@](N)(Cc1ccc(O)c(O)c1)C(=O)O` 6.4

Assign IP to the following record: `O=C(N[C@H](CO)[C@H](O)c1ccc([N+](=O)[O-])cc1)C(Cl)Cl` 6.5

Indicate the recorded IP value for this compound: `Nc1nc(N)c2nc(-c3ccccc3)c(N)nc2n1` 7.5

In one line, give reported IP of the entry `CC(=O)Oc1cc(C(C)C)c(OCCN(C)C)cc1C` . 6

Output measured IP for this item: `CN1C(=O)OC(C)(C)C1=O` 6.8

For the compound `CC(C)(S)[C@@H](N)C(=O)O` , report IP. 6.2
